test system: Plasmodium berghei; test: Antimalarial activity against Plasmodium berghei NS infected in po dosed CD1 mouse assessed as decrease in parasitemia measured on day 4; assay type: functional; settings: 96 h
Field: label. Allowed values: True (ED90 < 6 mg/kg) or False (ED90 >= 6 mg/kg).

COMPOUND	ASSIGNED CLASS
CCN(CC)CCCC(C)Nc1ccnc2cc(Cl)ccc12 (stereo not given) [CHLOROQUINE]	True
Cc1c(-c2ccc(-c3ccc(OC(F)(F)F)cc3)nc2)[nH]c2ccccc2c1=O	False
O=C1C(O)=C([C@H]2CC[C@H](c3ccc(Cl)cc3)CC2)C(=O)c2ccccc21 [ATOVAQUONE]	True
CO[C@H]1O[C@@H]2O[C@@]3(C)CC[C@H]4[C@H](C)CC[C@@H]([C@H]1C)[C@@]24OO3	True
Cc1c(-c2ccc(-c3ccc(OC(F)(F)F)cc3)nc2)[nH]c2ccccc2c1=O.O=P(O)(O)O	True

---

assay: Half life in rat at 20 mg/kg, po; format: ADME, organism-based; design: dose 20 mg/kg, route oral; conditions: in vivo
Collected half-life values appear next to each entry.

CHEMICAL SMILES	half-life [h]
Cc1c(-c2ccc(-c3ccc(OC(F)(F)F)cc3)nc2)[nH]c2ccccc2c1=O	9.9
Cc1c(-c2ccc(-c3ccc(OC(F)(F)F)cc3)nc2)nc2ccccc2c1OC(=O)N1CCOCC1	20.3

---

Collected pIC50 values appear next to each entry.
system: Plasmodium falciparum; test: Antimalarial activity against […]-resistant Plasmodium falciparum TM90C2B containing cytochrome-b Y268S mutant; format: functional, organism-based
pIC50: −log10 of the molar value.
READOUT LABEL: pIC50

COMPOUND	READOUT LABEL	NUMERIC READOUT
O=c1c(CO)c(-c2ccc(-c3ccc(OC(F)(F)F)cc3)cc2)[nH]c2ccccc12	pIC50	6.44
Cc1c(-c2ccc(-c3ccc(C(F)(F)F)cc3)nc2)[nH]c2ccccc2c1=O	pIC50	6.50
CCOC(=O)c1c(-c2ccc(-c3ccc(Cl)cc3)cc2)[nH]c2ccccc2c1=O	pIC50	5.94
Cc1c(-c2ccc(-c3ccccc3F)nc2)[nH]c2ccccc2c1=O	pIC50	6.49
Cc1c(-c2ccc(-c3ccc(OC(F)(F)F)cc3)nc2)[nH]c2ccccc2c1=O	pIC50	6.46
Cc1c(-c2ccc(-c3ccc(OC(F)(F)F)cc3)nc2)[nH]c2ccc(Cl)cc2c1=O	pIC50	6.39
O=C1C(O)=C([C@H]2CC[C@H](c3ccc(Cl)cc3)CC2)C(=O)c2ccccc21 [ATOVAQUONE]	pIC50	4.92
Cc1c(-c2ccc(-c3ccccc3C(F)(F)F)nc2)[nH]c2ccccc2c1=O	pIC50	6.42

---

experiment: Cmax in rat at 20 mg/kg, po; type: ADME, organism-based; set-up: dose 20 mg/kg, route oral; settings: in vivo
Collected Cmax values appear next to each entry.
READOUT LABEL: Cmax (ng/mL)

CHEMICAL SMILES	NUMERIC READOUT
Cc1c(-c2ccc(-c3ccc(OC(F)(F)F)cc3)nc2)[nH]c2ccccc2c1=O	3700
Cc1c(-c2ccc(-c3ccc(OC(F)(F)F)cc3)nc2)nc2ccccc2c1OC(=O)N1CCOCC1	8100

---

Collected Tmax values appear next to each entry.
assay: Tmax in rat at 20 mg/kg, po; format: ADME, organism-based; parameters: dose 20 mg/kg, route oral; details: in vivo

CHEMICAL SMILES	Tmax (h)
Cc1c(-c2ccc(-c3ccc(OC(F)(F)F)cc3)nc2)nc2ccccc2c1OC(=O)N1CCOCC1	7
Cc1c(-c2ccc(-c3ccc(OC(F)(F)F)cc3)nc2)[nH]c2ccccc2c1=O	7
